Numbers sourced from the supplement of paper PMC10567573.

Each entry below carries its reported protein stability index.
B1: MMP1 (parent)
chain: FHGTRQYKFDPKTKRILTLQKANS

Variants of: B1
Test: protein stability index of a GFP-peptide fusion (GPS, HEK-293T) (PSI 1-6); higher = more stable;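 also: lentivirally expressed fusions sorted by FACS into six bins by GFP to DsRed ratio, PSI derived from sequencing read proportions per bin multiplied by bin number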
Conditions: c terminus: a fixed tail appended
readoutName: protein stability index

>  <polymerSequence>
FHGTRQYKFDPKTKRILTWQKANS [L19W]

>  <resultValue>
2.61

$$$$
>  <polymerSequence>
FNGTRQYKFDPKTKRILTLQKANS [H2N]

>  <resultValue>
2.33

$$$$
>  <polymerSequence>
FHGTRQYKFDPKTNRILTLQKANS [K14N]

>  <resultValue>
2.14

$$$$
>  <polymerSequence>
FHGTRQYKFDPKTYRILTLQKANS [K14Y]

>  <resultValue>
1.36

$$$$
>  <polymerSequence>
FHTTRQYKFDPKTKRILTLQKANS [G3T]

>  <resultValue>
2.1

$$$$
>  <polymerSequence>
FHGTRQYKTDPKTKRILTLQKANS [F9T]

>  <resultValue>
1.55

$$$$
>  <polymerSequence>
FHGTRQLKFDPKTKRILTLQKANS [Y7L]

>  <resultValue>
2.57

$$$$
>  <polymerSequence>
FHGTRQCKFDPKTKRILTLQKANS [Y7C]

>  <resultValue>
1.97

$$$$
>  <polymerSequence>
DHGTRQYKFDPKTKRILTLQKANS [F1D]

>  <resultValue>
3.65

$$$$
>  <polymerSequence>
FHGTRQYKFDPKTKRILTLQKKNS [A22K]

>  <resultValue>
1.99

$$$$
>  <polymerSequence>
FHGTRQYKFDDKTKRILTLQKANS [P11D]

>  <resultValue>
2.01

$$$$
>  <polymerSequence>
FHGTRQYKFDPKTKRILTLQNANS [K21N]

>  <resultValue>
2.27

$$$$
>  <polymerSequence>
FHGTRQYKFDPATKRILTLQKANS [K12A]

>  <resultValue>
1.87

$$$$
